This section presents compounds with their documented pIC50 values.
molecular target: human RAF1 (Homo sapiens, UniProt P04049); assay: Protein kinase assay (33P-ATP filter binding), human RAF1, 10-dose IC50; conditions: MEK1 (K97R) substrate 3 micromolar, ATP 10 micromolar, read-out: RAF-1 IC50
Sequence (P04049 whole entry): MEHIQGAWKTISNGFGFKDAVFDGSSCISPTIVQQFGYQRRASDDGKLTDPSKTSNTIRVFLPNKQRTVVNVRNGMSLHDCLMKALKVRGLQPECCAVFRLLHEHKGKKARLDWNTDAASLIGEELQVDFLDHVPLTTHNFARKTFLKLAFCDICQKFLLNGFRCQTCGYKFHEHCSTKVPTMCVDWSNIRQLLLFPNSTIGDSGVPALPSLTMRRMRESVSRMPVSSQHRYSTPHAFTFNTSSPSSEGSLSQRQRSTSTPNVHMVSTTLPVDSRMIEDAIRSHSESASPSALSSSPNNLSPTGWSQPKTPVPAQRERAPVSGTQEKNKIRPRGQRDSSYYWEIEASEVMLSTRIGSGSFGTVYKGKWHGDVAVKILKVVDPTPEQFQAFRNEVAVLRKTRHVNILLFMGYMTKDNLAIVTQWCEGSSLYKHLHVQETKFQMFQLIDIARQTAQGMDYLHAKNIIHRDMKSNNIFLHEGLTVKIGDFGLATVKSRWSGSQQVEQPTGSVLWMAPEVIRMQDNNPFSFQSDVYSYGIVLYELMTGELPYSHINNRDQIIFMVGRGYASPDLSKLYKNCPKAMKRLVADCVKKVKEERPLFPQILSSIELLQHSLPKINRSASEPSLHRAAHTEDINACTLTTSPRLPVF
pIC50: −log10 of the molar value.

Answered examples (2):
compound | measured.target | data.value
Cc1ccc(NC(=O)N2C[C@@H]3[C@H](C2)[C@H]3C(F)(F)F)cc1-c1cc(OCCO)nc(N2CCOCC2)c1 [Example 176] | human RAF1 (Homo sapiens, UniProt P04049) | > 8.00
Cc1ccc(NC(=O)N2CC[C@H](C(F)(F)F)C2)cc1-c1cnc(OCCO)c(N2CCOCC2)c1 (single isomer, unassigned) [Example 15] | human RAF1 (Homo sapiens, UniProt P04049) | > 8.00

# ---- query compound ----
Returns the measured pIC50 for the input compound. Input: Cc1ccc(NC(=O)N2CC[C@@H](CC(F)(F)F)C2)cc1-c1cc(OCC2(O)CC2)nc(N2CCOCC2)c1 [Example 218]
> 8.00

Where these numbers come from: patent US20230081390A1
